These data points were gathered from PubChem BioAssay (EPA / NIEHS).

# Read-out: Urokinase-type plasminogen activator receptor (uPAR), PLAUR (gene 5329)
# assayInfo: BSK_CASM3C_uPAR: BioMAP Diversity Plus: CASM3C Assay for Urokinase-type plasminogen activator receptor (uPAR) Biomarker Activity (AID 2283054);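 also: cell-surface uPAR protein level quantified by ELISA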
# conditions: primary human coronary artery smooth muscle cells; actives raise or lower the signal
The source made the active and inactive calls. The calls were made as follows: active = hit-call score of the fitted dose curve at least 0.9, where 1 is the maximum; inactive = score below 0.9.
Classes used: active, inactive

> print(dat)
                          structureassmiles     group
1  Cc1ccccc1CO[C@@H]1C[C@@]2(C(C)C)CC[C@]1(C)O2  inactive
2  CCC(=O)O[C@H]1CC[C@H]2[C@@H]3CCC4=CC(=O)CC[C@]4(C)[C@H]3CC[C@]12C  inactive
3  N#Cc1ccc(N(CC(N)=O)CC(F)(F)F)cc1C(F)(F)F  inactive
4   CC(c1ccc(O)cc1)(c1ccc(O)cc1)c1ccc(O)cc1    active
5                                 Sc1ccccc1  inactive
6                      CCCCCCCCCc1ccc(O)cc1    active
